# TARGET OR TEST SYSTEM: KA2 (Rattus norvegicus, UniProt Q63273)
# Construct: expressed in transfected cells; host or cells: HEK-293-T/17
# Sequence (Q63273 15-979): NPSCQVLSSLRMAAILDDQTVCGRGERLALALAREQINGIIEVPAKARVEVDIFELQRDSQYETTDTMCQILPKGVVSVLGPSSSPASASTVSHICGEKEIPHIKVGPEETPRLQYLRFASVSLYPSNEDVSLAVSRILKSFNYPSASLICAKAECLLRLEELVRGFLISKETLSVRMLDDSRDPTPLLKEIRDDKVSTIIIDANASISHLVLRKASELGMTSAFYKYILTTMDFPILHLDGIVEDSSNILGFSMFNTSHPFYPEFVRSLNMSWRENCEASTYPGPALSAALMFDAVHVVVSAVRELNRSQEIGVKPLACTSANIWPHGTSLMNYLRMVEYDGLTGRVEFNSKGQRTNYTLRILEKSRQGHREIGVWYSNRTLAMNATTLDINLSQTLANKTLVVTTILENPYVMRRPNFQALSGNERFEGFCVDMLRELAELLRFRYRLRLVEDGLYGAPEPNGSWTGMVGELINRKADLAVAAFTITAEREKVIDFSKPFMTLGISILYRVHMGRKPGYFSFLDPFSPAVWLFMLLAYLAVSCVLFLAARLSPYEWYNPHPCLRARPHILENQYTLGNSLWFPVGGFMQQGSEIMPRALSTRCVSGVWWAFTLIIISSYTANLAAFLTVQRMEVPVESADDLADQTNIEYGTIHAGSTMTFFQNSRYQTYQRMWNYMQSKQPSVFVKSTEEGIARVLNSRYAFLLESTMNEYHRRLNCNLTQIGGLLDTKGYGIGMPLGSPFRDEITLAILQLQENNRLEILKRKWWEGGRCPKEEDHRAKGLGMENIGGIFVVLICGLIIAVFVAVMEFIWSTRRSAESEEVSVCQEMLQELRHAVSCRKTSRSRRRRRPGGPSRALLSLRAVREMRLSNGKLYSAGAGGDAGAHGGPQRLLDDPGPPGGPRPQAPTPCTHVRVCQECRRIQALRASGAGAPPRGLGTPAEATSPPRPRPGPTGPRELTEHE
# MEASUREMENT PROTOCOL: Radioligand displacement ([3H]kainate), Example 1
# Assay type: binding
MEASUREMENT NAME: pKi
Conceptually, pKi converts a concentration in mol/L into minus its log10.

Could you tell me which pKi is on file for N[C@@H](C[C@]1(C(=O)O)C[C@H]2OC[C@@H](O)C[C@H]2O1)C(=O)O ?
4.44

* * *

# TARGET OR TEST SYSTEM: GluR5-2a (Rattus norvegicus, UniProt P22756, DEL402-416)
# Construct: expressed in transfected cells; host or cells: HEK-293-T/17
# Sequence (P22756 with tags, fused parts or gaps isoform P22756-2 limits assumed, stated change not applied): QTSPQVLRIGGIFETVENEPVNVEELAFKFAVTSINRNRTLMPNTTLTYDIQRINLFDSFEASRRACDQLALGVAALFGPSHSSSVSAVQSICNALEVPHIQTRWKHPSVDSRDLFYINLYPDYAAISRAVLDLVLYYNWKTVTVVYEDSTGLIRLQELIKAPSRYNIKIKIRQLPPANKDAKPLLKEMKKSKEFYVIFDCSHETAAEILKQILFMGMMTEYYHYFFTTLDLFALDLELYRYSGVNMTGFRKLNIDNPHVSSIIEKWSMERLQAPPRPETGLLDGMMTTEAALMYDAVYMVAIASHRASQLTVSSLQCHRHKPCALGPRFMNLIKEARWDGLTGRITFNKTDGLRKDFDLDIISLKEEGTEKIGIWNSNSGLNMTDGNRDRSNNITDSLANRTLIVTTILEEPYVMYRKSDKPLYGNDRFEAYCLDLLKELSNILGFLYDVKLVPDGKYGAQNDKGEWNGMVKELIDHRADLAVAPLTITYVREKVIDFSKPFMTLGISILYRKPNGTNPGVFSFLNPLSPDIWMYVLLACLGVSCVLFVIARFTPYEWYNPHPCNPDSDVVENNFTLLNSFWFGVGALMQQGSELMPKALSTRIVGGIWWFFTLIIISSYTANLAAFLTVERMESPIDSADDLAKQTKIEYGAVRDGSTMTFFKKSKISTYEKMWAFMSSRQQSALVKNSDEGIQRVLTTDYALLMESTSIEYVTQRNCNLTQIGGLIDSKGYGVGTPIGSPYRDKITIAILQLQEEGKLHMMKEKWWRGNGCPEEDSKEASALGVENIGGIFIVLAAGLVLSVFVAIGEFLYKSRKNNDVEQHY
# MEASUREMENT PROTOCOL: Radioligand binding ([3H]kainate displacement), HEK-293-T/17 membranes, Example 2
# CONDITION PARAMETERS: Cheng-Prusoff, read-out: Ki GluR5-2a
pKi: −log10 of the molar value.
Decision: pKi >= 7 yields Fulfilled, all other cases yield Not fulfilled.

Examples with answers:
Identify whether the reported pKi of the following molecule is 7 or greater: NC(CC1(C(=O)O)CC2OCC(O)C(O)C2O1)C(=O)O (stereo not drawn) [8-epi-neoDH, 8-epi-neodysiherbaine]
Fulfilled

Then N[C@@H](C[C@@]1(C(=O)O)CC2OCC(O)C(O)C2O1)C(=O)O (single isomer, unassigned) [2,4-epi-neoDH, 2,4-epi-neodysiherbaine] ?
Not fulfilled

Could you do the same for N[C@@H](C[C@]1(C(=O)O)C[C@H]2OCC[C@@H](O)[C@H]2O1)C(=O)O [9-deoxy-neoDH] , please?
Not fulfilled

Others:
Confirm if pKi reported for the molecule NC(CC1(C(=O)O)CC2OCC(F)C(O)C2O1)C(=O)O (stereo not drawn) [9-F-8-epi-neoDH] is 7 or above.
Fulfilled

How about this molecule: NC(CC1(C(=O)O)CC2OCC(O)C(O)C2O1)C(=O)O (stereo not drawn) [8,9-epi-neoDH, 8,9-epi-neodysiherbaine]
Not fulfilled

Same read-out for NC(CC1(C(=O)O)CC2OCC(O)C(O)C2O1)C(=O)O (stereo not drawn) [9-epi-neoDH, 9-epi-neodysiherbaine] ?
Not fulfilled

* * *

# TARGET OR TEST SYSTEM: GluR6a (Rattus norvegicus, UniProt P42260)
# Construct: expressed in transfected cells; host or cells: HEK-293-T/17
# Sequence (P42260 32-908): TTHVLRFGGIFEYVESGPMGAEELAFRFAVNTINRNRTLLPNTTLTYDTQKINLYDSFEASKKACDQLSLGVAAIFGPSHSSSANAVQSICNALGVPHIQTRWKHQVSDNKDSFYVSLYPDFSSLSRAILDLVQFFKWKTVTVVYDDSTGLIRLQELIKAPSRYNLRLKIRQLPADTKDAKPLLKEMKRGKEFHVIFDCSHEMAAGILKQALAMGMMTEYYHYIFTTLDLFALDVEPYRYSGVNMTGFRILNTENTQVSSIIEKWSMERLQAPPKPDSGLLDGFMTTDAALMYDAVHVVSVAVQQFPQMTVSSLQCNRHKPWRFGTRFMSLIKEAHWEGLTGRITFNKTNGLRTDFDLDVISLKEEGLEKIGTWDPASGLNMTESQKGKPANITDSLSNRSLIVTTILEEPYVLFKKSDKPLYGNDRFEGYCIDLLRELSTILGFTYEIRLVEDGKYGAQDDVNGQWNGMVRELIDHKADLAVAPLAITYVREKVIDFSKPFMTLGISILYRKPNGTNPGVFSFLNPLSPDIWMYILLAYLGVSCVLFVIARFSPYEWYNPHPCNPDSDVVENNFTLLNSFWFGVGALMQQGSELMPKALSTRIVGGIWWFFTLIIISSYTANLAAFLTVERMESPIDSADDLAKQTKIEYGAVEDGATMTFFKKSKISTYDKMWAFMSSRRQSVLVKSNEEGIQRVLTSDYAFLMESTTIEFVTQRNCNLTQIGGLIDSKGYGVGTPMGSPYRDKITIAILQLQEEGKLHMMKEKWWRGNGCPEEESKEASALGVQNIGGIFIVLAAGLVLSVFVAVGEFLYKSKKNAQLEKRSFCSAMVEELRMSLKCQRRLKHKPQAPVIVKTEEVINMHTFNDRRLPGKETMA
# MEASUREMENT PROTOCOL: Radioligand binding ([3H]kainate displacement), HEK-293-T/17 membranes, Example 2
# CONDITION PARAMETERS: [3H]kainate displacement; Cheng-Prusoff; read-out: Ki GluR6a
Entries and their Ki
Answer format: numeric, µM implied, no suffix.

Sample answers from the record:
# get_value(readout='Ki', item= NC(CC1(C(=O)O)CC2OCC(O)C(O)C2O1)C(=O)O (stereo not drawn) [8-epi-neoDH, 8-epi-neodysiherbaine] )
22

And N[C@@H](C[C@@]1(C(=O)O)CC2OCC(O)C(O)C2O1)C(=O)O (single isomer, unassigned) [2,4-epi-neoDH, 2,4-epi-neodysiherbaine] ?
7.7

Next compound, please.
For N[C@@H](C[C@@]1(C(=O)O)CC2OCC(O)C(O)C2O1)C(=O)O (single isomer, unassigned) [4-epi-neoDH, 4-epi-neodysiherbaine] , what is its reported Ki?
6.7
